Where do the numbers come from? From ChEMBL document CHEMBL5346970.

experiment: Oral bioavailability in Sprague-Dawley rat at 0.1 ml/kg; assay type: ADME, organism-based; conditions: in vivo
QUANTITY NAME: bioavailability (%)
Give bare numbers, in %.

input: // bioavailability lookup, key: COc1ccc2cc(OCC3(C(=O)O)CN(C(=O)c4ccc(F)cc4)C3)ccc2c1 [PF-04418948]
output: 78
